# target.system: EGFR (D770_N771insNPG) (Homo sapiens, UniProt P00533, INS770NPG)
# Sequence (P00533 with tags, fused parts or gaps INS770NPG limits assumed): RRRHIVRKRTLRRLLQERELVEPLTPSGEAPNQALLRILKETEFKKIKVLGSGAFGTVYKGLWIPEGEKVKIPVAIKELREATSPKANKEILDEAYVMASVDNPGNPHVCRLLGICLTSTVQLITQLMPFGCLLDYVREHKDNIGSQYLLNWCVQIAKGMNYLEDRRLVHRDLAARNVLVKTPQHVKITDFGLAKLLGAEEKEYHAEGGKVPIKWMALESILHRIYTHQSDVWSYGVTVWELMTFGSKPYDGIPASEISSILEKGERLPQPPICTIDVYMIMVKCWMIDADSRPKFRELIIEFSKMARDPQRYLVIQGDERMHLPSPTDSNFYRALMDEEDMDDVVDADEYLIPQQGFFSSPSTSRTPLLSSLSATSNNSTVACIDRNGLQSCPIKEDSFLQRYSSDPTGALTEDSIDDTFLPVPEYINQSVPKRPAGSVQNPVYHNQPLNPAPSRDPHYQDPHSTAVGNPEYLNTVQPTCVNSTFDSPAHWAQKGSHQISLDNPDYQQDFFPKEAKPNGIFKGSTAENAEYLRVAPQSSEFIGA
# test.method.notes: HotSpot radiometric kinase assay, inhibition of EGFR (D770_N771insNPG) mutant
# assay.conditions: 33P ATP, room temperature, 120 m
# IC50 values compiled below
Dear colleague, please return just the value in nM, with no unit written.

Solved entries (count: 3):
{"molecule": "CCOc1nn([C@@H](C)CO)c2c1/C=C/c1n[nH]c3cnc(cc13)-c1c(C)nn(C)c1O[C@@H](C)[C@H]1CCCN1C2 [Ex. 56]", "target.system": "EGFR (D770_N771insNPG) (Homo sapiens, UniProt P00533, INS770NPG)", "IC50 (nM)": 0.67}
{"molecule": "Cc1nn(C)c2c1-c1cc3c(n[nH]c3cn1)/C=C/c1c(OCC#N)nn([C@@H](C)CO)c1CN(C)CCO2 [Ex. 70]", "target.system": "EGFR (D770_N771insNPG) (Homo sapiens, UniProt P00533, INS770NPG)", "IC50 (nM)": 0.41}
{"molecule": "CCOc1nn(CCO)c2c1/C=C/c1n[nH]c3cnc(cc13)-c1c(C)nn(C)c1O[C@H](C)CN(CC)C2 [Ex. 17]", "target.system": "EGFR (D770_N771insNPG) (Homo sapiens, UniProt P00533, INS770NPG)", "IC50 (nM)": 0.59}

Query: Tell us which IC50 value is on record for CCN1Cc2c(c(C)nn2CCO)/C=C/c2n[nH]c3cnc(cc23)-c2c(C)nn(C)c2O[C@@H](C)C1 [Ex. 13]
Response: 0.07

Query: Tell us which IC50 value is on record for CCN1CCOc2c(c(C)nn2C)-c2cc3c(n[nH]c3cn2)/C=C/c2c(OCC#N)nn([C@@H](C)CO)c2C1 [Ex. 66]
Response: 0.42

Query: Tell us which IC50 value is on record for CCN1Cc2c(c(OC(C)C)nn2CCO)/C=C/c2n[nH]c3cnc(cc23)-c2cnn(C)c2O[C@@H](C)C1 [Ex. 9]
Response: 0.29

Query: Tell us which IC50 value is on record for Cc1nn(C)c2c1-c1cc3c(n[nH]c3cn1)/C=C/c1c(OCC#N)nn(CCO)c1CN(C)C[C@H](C)O2 [Ex. 22]
Response: 0.28

Query: Tell us which IC50 value is on record for CCc1nn(CCO)c2c1/C=C/c1n[nH]c3cnc(cc13)-c1c(C)nn(C)c1O[C@@H](C)CN(CC)C2 [Ex. 62]
Response: 0.42

---

# target.system: EGFR (D746-750/C797S) (Homo sapiens, UniProt P00533, C797S/DEL746-750)
# Sequence (P00533 with tags, fused parts or gaps DEL746-750/C797S): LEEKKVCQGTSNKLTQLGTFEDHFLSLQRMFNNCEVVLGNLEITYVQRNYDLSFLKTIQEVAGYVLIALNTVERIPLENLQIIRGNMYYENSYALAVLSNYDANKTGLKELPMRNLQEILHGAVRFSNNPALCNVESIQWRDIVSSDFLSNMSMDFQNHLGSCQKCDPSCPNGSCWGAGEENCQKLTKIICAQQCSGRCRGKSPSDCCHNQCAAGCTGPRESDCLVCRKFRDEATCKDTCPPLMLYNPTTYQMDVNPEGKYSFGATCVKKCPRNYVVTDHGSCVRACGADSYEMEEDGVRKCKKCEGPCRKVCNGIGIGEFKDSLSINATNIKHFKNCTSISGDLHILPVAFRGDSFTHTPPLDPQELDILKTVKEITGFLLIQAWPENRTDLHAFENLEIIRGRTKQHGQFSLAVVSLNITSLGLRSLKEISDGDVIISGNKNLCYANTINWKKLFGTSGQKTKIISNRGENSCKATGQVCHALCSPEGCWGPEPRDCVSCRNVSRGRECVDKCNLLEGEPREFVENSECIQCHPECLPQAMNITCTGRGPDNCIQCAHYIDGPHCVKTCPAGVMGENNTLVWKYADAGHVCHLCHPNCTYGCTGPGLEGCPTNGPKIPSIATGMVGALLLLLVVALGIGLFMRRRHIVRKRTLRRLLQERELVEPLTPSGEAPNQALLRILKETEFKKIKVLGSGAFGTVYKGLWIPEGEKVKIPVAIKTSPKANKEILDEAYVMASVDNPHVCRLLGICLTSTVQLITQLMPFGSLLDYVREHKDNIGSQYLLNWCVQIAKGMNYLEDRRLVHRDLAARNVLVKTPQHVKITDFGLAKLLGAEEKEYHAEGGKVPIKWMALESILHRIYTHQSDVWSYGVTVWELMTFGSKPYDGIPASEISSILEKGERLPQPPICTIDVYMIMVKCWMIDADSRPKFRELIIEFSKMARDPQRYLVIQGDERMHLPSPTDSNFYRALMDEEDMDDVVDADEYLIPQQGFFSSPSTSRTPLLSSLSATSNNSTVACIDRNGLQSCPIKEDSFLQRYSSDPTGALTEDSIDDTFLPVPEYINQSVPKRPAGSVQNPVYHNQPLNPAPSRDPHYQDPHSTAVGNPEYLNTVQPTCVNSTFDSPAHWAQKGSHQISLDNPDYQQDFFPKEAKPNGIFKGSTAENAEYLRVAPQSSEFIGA
# test.method.notes: HotSpot radiometric kinase assay, inhibition of EGFR 746-750/C797S mutant
# Type: biochemical
# assay.conditions: 33P ATP, room temperature, 120 m
# pIC50 values compiled below
pIC50 (log units): -log10 of the concentration in mol/L.

Solved entries (count: 3):
{"molecule": "Cc1nn(C)c2c1-c1cc3c(n[nH]c3cn1)/C=C/c1c(OCC#N)nn(CCO)c1CN(C)[C@@H](C)CO2 [Ex. 31]", "target.system": "EGFR (D746-750/C797S) (Homo sapiens, UniProt P00533, C797S/DEL746-750)", "pIC50": 9.11}
{"molecule": "Cc1nc2cc3c(n[nH]c13)/C=C/c1c(OC(C)C)nn(CCO)c1CN(C)C[C@H](C)Oc1c-2cnn1C [Ex. 40]", "target.system": "EGFR (D746-750/C797S) (Homo sapiens, UniProt P00533, C797S/DEL746-750)", "pIC50": 9.01}
{"molecule": "CCOc1nn([C@@H](C)CO)c2c1/C=C/c1n[nH]c3c(C)nc(cc13)-c1cnn(C)c1O[C@@H](C)CN(C)C2 [Ex. 45]", "target.system": "EGFR (D746-750/C797S) (Homo sapiens, UniProt P00533, C797S/DEL746-750)", "pIC50": 9.02}

Then there is this molecule:
Query: Tell us which pIC50 value is on record for CCN1Cc2c(c(OCC#N)nn2CCO)/C=C/c2n[nH]c3cnc(cc23)-c2c(C)nn(C)c2O[C@@H](C)C1 [Ex. 23]
Response: 9.00

---

# IC50 values compiled below
# target.system: EGFR (L858R/T790M/C797S) (Homo sapiens, UniProt P00533, C797S/L858R/T790M)
# Sequence (P00533 25-1210 T790M/C797S/L858R): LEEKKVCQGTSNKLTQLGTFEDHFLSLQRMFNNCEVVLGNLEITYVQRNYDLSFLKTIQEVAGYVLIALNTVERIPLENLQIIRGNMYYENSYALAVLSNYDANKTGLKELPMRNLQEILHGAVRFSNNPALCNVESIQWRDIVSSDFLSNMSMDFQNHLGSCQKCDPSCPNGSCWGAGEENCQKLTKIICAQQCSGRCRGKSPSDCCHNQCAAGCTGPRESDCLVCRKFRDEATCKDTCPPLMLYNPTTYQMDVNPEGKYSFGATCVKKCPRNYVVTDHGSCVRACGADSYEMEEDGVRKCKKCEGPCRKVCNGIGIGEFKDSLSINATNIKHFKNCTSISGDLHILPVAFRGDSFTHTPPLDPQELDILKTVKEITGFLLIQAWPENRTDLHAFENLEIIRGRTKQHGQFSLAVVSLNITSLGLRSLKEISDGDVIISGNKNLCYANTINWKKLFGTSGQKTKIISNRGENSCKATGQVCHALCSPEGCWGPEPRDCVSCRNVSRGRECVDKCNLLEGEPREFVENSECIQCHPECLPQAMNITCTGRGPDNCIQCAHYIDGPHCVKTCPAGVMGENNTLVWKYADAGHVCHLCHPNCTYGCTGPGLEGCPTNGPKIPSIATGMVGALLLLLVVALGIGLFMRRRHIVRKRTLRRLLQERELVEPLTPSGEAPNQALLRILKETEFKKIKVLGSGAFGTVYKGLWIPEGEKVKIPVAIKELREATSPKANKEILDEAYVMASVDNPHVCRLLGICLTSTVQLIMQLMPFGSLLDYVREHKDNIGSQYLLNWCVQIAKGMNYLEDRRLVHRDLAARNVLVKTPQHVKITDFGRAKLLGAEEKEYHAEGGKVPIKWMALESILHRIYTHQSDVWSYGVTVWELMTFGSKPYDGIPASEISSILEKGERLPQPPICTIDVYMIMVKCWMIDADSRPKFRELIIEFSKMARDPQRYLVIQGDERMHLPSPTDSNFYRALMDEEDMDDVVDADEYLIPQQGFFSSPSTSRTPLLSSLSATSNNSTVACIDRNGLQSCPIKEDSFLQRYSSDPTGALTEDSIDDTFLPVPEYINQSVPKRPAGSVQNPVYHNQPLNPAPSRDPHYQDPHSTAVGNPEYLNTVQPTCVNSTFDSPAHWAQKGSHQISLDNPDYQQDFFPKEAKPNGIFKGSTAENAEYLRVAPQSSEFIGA
# test.method.notes: HotSpot radiometric kinase assay, inhibition of EGFR L858R/T790M/C797S mutant
# assay.conditions: 33P ATP, room temperature, 120 m
Dear colleague, please return just the value in nM, with no unit written.

{"compound": "CCOc1nn(CCO)c2c1/C=C/c1n[nH]c3cnc(cc13)-c1c(C)nn(C)c1OC[C@H]1CCCN1C2 [Ex. 39]", "IC50 [nM]": 0.5}

Query: Tell us which IC50 value is on record for CCOc1nn([C@@H](C)CO)c2c1/C=C/c1n[nH]c3cnc(cc13)-c1cnn(C)c1O[C@@H](C)CN(C)C2 [Ex. 19]
Response: 1.78

Query: Tell us which IC50 value is on record for CCOc1nn(CCO)c2c1/C=C/c1n[nH]c3cnc(cc13)-c1cnn(C)c1OC[C@H](C)N(CC)C2 [Ex. 7]
Response: 0.23

Query: Tell us which IC50 value is on record for Cc1nn(C)c2c1-c1cc3c(n[nH]c3cn1)/C=C/c1c(C#N)nn([C@@H](C)CO)c1CN(C)C[C@H](C)O2 [Ex. 48]
Response: 0.37

---

# target.system: pEGFR, NCI-H1975 cells (L858R/T790M EGFR) (Homo sapiens, UniProt P00533, L858R/T790M)
# Construct: pEGFR (Tyr1068) TR-FRET
# Sequence (P00533 25-1210 T790M/L858R): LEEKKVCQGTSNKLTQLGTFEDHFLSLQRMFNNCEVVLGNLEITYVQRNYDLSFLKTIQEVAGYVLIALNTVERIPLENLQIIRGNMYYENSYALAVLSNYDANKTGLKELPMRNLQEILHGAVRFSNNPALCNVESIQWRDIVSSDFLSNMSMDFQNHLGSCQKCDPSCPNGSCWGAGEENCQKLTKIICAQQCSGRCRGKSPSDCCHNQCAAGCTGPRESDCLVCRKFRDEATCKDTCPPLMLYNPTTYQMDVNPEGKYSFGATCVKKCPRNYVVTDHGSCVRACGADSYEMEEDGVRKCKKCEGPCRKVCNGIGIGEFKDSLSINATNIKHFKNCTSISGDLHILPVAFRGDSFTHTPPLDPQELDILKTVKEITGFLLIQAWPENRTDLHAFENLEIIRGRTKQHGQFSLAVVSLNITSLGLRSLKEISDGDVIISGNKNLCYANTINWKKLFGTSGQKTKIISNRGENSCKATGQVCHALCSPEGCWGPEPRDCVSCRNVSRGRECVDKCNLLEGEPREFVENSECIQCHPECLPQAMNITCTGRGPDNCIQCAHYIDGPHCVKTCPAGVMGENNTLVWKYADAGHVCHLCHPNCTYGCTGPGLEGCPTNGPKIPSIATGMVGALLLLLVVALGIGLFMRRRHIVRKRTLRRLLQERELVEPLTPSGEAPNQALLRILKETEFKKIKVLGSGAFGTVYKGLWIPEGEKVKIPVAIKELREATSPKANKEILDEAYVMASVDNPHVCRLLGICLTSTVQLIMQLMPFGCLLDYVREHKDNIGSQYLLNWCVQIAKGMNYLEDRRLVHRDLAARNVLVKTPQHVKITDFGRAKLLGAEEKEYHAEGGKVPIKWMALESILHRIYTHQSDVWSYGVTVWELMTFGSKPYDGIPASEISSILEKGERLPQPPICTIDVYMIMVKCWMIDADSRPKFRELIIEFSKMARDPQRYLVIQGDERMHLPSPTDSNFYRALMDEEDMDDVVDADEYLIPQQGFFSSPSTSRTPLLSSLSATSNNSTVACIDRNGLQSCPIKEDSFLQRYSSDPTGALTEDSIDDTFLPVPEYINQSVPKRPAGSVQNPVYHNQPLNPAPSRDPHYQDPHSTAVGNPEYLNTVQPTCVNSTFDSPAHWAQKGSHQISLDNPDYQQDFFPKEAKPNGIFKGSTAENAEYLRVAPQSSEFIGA
# test.method.notes: Cellular EGFR phosphorylation assay (LANCE Ultra TR-FRET) in NCI-H1975 cells
# Format: cell-based
# assay.conditions: 4 hours at 37° C., read-out: H1975 pEGFR IC50
quantity.name: pIC50
pIC50 (log units): -log10 of the concentration in mol/L.

{"compound": "Cc1nn(C)c2c1-c1cc3c(n[nH]c3cn1)/C=C/c1c(C#N)nn([C@@H](C)CO)c1CN(C)C[C@H](C)O2 [Ex. 48]", "target.system": "pEGFR, NCI-H1975 cells (L858R/T790M EGFR) (Homo sapiens, UniProt P00533, L858R/T790M)", "quantity.name": "pIC50", "quantitative.result": 8.21}
{"compound": "CCOc1nn([C@@H](C)CO)c2c1/C=C/c1n[nH]c3cnc(cc13)-c1c(C)nn(C)c1O[C@H](C)CN(CC)C2 [Ex. 24]", "target.system": "pEGFR, NCI-H1975 cells (L858R/T790M EGFR) (Homo sapiens, UniProt P00533, L858R/T790M)", "quantity.name": "pIC50", "quantitative.result": 8.80}
{"compound": "CCOc1nn(CCO)c2c1/C=C/c1n[nH]c3c(C)nc(cc13)-c1c(C)nn(C)c1O[C@@H](C)CN(C)C2 [Ex. 47]", "target.system": "pEGFR, NCI-H1975 cells (L858R/T790M EGFR) (Homo sapiens, UniProt P00533, L858R/T790M)", "quantity.name": "pIC50", "quantitative.result": 8.97}
{"compound": "CCOc1nn(C[C@H](C)O)c2c1/C=C/c1n[nH]c3cnc(cc13)-c1c(C)nn(C)c1O[C@@H](C)CN(C)C2 [Ex. 86]", "target.system": "pEGFR, NCI-H1975 cells (L858R/T790M EGFR) (Homo sapiens, UniProt P00533, L858R/T790M)", "quantity.name": "pIC50", "quantitative.result": 8.80}
{"compound": "CNc1nn([C@@H](C)CO)c2c1/C=C/c1n[nH]c3c(C)nc(cc13)-c1c(C)nn(C)c1O[C@@H](C)CN(C)C2 [Ex. 101]", "target.system": "pEGFR, NCI-H1975 cells (L858R/T790M EGFR) (Homo sapiens, UniProt P00533, L858R/T790M)", "quantity.name": "pIC50", "quantitative.result": 8.57}
{"compound": "CCOc1nn([C@@H](C)CO)c2c1/C=C/c1n[nH]c3c(C)nc(cc13)-c1c(C)nn(C)c1O[C@@H](C)CN(C)C2 [Ex. 54]", "target.system": "pEGFR, NCI-H1975 cells (L858R/T790M EGFR) (Homo sapiens, UniProt P00533, L858R/T790M)", "quantity.name": "pIC50", "quantitative.result": 9.03}
{"compound": "CCN1Cc2c(c(OCC#N)nn2CCO)/C=C/c2n[nH]c3cnc(cc23)-c2c(C)nn(C)c2O[C@@H](C)C1 [Ex. 23]", "target.system": "pEGFR, NCI-H1975 cells (L858R/T790M EGFR) (Homo sapiens, UniProt P00533, L858R/T790M)", "quantity.name": "pIC50", "quantitative.result": 8.23}
{"compound": "CCOc1nn([C@@H](C)CO)c2c1/C=C/c1n[nH]c3cnc(cc13)-c1c(C)nn(C)c1OC[C@@H](C)N(C)C2 [Ex. 97]", "target.system": "pEGFR, NCI-H1975 cells (L858R/T790M EGFR) (Homo sapiens, UniProt P00533, L858R/T790M)", "quantity.name": "pIC50", "quantitative.result": 8.79}

Query: Tell us which pIC50 value is on record for CCN1Cc2c(c(OCC#N)nn2[C@@H](C)CO)/C=C/c2n[nH]c3c(C)nc(cc23)-c2c(C)nn(C)c2O[C@@H](C)C1 [Ex. 148]
Response: 8.54

Query: Tell us which pIC50 value is on record for CCOc1nn([C@@H](C)CO)c2c1/C=C/c1n[nH]c3cnc(cc13)-c1c(C)nn(C)c1OCCN(C)C2 [Ex. 59]
Response: 8.84

Query: Tell us which pIC50 value is on record for CCOc1nn([C@@H](C)CO)c2c1/C=C/c1n[nH]c3cnc(cc13)-c1c(C)nn(C)c1O[C@@H](C)CN(C)C2 [Ex. 27]
Response: 8.73

Query: Tell us which pIC50 value is on record for CCOc1nn([C@@H](C)CO)c2c1/C=C/c1n[nH]c3cnc(cc13)-c1c(C)nn(C)c1O[C@@H](C)CN(CC)C2 [Ex. 26]
Response: 8.47

Query: Tell us which pIC50 value is on record for CCOc1nn(CCO)c2c1/C=C/c1n[nH]c3cnc(cc13)-c1c(C)nn(C)c1O[C@@H](C)CN(C(C)C)C2 [Ex. 8]
Response: 8.81

Query: Tell us which pIC50 value is on record for CCOc1nn([C@H](C)CO)c2c1/C=C/c1n[nH]c3cnc(cc13)-c1c(C)nn(C)c1O[C@@H](C)CN(C)C2 [Ex. 88]
Response: 8.66

Query: Tell us which pIC50 value is on record for CCOc1nn(CCO)c2c1/C=C/c1n[nH]c3cnc(cc13)-c1c(C)nn(C)c1OC[C@H]1CCCN1C2 [Ex. 39]
Response: 8.66

Data provenance is patent US20260317344A1.
